Where do these numbers come from? They come from ChEMBL document CHEMBL3885861.

Species: Rattus norvegicus
PROTOCOL: Open TG-GATES - Regimen: Daily Repeat
Type: toxicity, organism-based, Sprague-Dawley
Design: regimen Daily Repeat, gender Male, age 6 weeks
CONDITIONS_USED: in vivo, po, 0 mg/kg, […], tissue Blood, route gavage, dose level Control, time 7 day

COMPOUND: C=CCO
Lym: 79.4%

COMPOUND: O=C1CN(/N=C/c2ccc(-c3ccc([N+](=O)[O-])cc3)o2)C(O)=N1
Lym: 78.2%

COMPOUND: O=P1(N(CCCl)CCCl)NCCCO1 (configuration not stated) [CYCLOPHOSPHAMIDE ANHYDROUS]
Lym: 80%

COMPOUND: COc1ccc(Cl)cc1C(=O)NCCc1ccc(S(=O)(=O)NC(=O)NC2CCCCC2)cc1 [GLYBURIDE]
Lym: 79.8%

COMPOUND: Cn1c(=O)c2c(ncn2C)n(C)c1=O
Lym: 79%

COMPOUND: Cc1cnc(NC(=O)C2=C(O)c3ccccc3S(=O)(=O)N2C)s1
Lym: 78.4%

COMPOUND: O=C1NC(=O)C(c2ccccc2)(c2ccccc2)N1
Lym: 82.2%

---

Species on record: Rattus norvegicus
PROTOCOL: Open TG-GATES - Regimen: Daily Repeat
Assay type: toxicity, organism-based, Sprague-Dawley
Parameters: regimen Daily Repeat, gender Male, age 6 weeks
CONDITIONS_USED: in vivo, po, 0 mg/kg, 72 h, tissue Blood, route gavage, dose level Control, time 3 day

COMPOUND: Cn1cnc([N+](=O)[O-])c1Sc1ncnc2nc[nH]c12 [AZATHIOPRINE]
Mono (%): 2.2

COMPOUND: O=C1CN(/N=C/c2ccc(-c3ccc([N+](=O)[O-])cc3)o2)C(O)=N1 [DANTROLENE]
Mono (%): 6.6

COMPOUND: COc1ccc(Cl)cc1C(=O)NCCc1ccc(S(=O)(=O)NC(=O)NC2CCCCC2)cc1 [GLYBURIDE]
Mono (%): 2.6

---

Organism: Rattus norvegicus
PROTOCOL: Open TG-GATES - Regimen: Single
Type: toxicity, organism-based, Sprague-Dawley
Parameters: regimen Single, gender Male, age 6 weeks
CONDITIONS_USED: in vivo, po, 0 mg/kg, 6 h, tissue Plasma, route gavage, dose level Control
Reported K values are given for each entry in this list.

COMPOUND: Cc1cnc(NC(=O)C2=C(O)c3ccccc3S(=O)(=O)N2C)s1
K [meq/L]: 3.9
--
COMPOUND: Cc1cccc(Nc2cc(Cl)nc(SCC(=O)O)n2)c1C
K [meq/L]: 4.1
--
COMPOUND: COc1ccc(O)c(C(C)(C)C)c1.COc1ccc(O)cc1C(C)(C)C [BUTYLATED HYDROXYANISOLE]
K [meq/L]: 4.1

---

The following compounds are shown together with reported Na values.
Species on record: Rattus norvegicus
PROTOCOL: Open TG-GATES - Regimen: Single
Type: toxicity, organism-based, Sprague-Dawley
Parameters: regimen Single, gender Male, age 6 weeks
CONDITIONS_USED: in vivo, po, 0 mg/kg, 3 h, tissue Plasma, route gavage, dose level Control

COMPOUND: Cc1cnc(NC(=O)C2=C(O)c3ccccc3S(=O)(=O)N2C)s1
UNITS_LABEL: meq/L
Na: 141.4
--
COMPOUND: COc1ccc(Cl)cc1C(=O)NCCc1ccc(S(=O)(=O)NC(=O)NC2CCCCC2)cc1 [GLYBURIDE]
UNITS_LABEL: meq/L
Na: 141
--
COMPOUND: Cn1cnc([N+](=O)[O-])c1Sc1ncnc2nc[nH]c12
UNITS_LABEL: meq/L
Na: 142.6
--
COMPOUND: O=C1CN(/N=C/c2ccc(-c3ccc([N+](=O)[O-])cc3)o2)C(O)=N1
UNITS_LABEL: meq/L
Na: 139.6
--
COMPOUND: CS(=O)(=O)Nc1ccc([N+](=O)[O-])cc1Oc1ccccc1 [NIMESULIDE]
UNITS_LABEL: meq/L
Na: 141.8
--
COMPOUND: CNCCC(Oc1ccc(C(F)(F)F)cc1)c1ccccc1.Cl (stereo not given) [FLUOXETINE HYDROCHLORIDE]
UNITS_LABEL: meq/L
Na: 138.2
--
COMPOUND: Cc1cccc(Nc2cc(Cl)nc(SCC(=O)O)n2)c1C
UNITS_LABEL: meq/L
Na: 140
--
COMPOUND: S=C=Nc1cccc2ccccc12 [1-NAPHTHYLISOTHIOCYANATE]
UNITS_LABEL: meq/L
Na: 141.6
--
COMPOUND: O=C1NC(=O)C(c2ccccc2)(c2ccccc2)N1
UNITS_LABEL: meq/L
Na: 141.6
--
COMPOUND: COc1ccc(O)c(C(C)(C)C)c1.COc1ccc(O)cc1C(C)(C)C [BUTYLATED HYDROXYANISOLE]
UNITS_LABEL: meq/L
Na: 141
